Biological target: JAK1 (Homo sapiens (Human))
Assay: Jak Biochemical HTRF Assay, JAK1
Conditions: HTRF biochemical assay, GST-tagged catalytic domain; top concentration tested […]; read-out: JAK1 IC50
propertyName: IC50 (nM)
Form entry: value (nM) — number only.

[Q] Given the compound CC(C)(C)C(=O)N1CC(CC#N)(n2cc(C(N)=O)c(Nc3ccccc3)n2)C1 [Example 34-37] , what is its reported IC50?
[A] 138

[Q] Endpoint output: IC50 of CC(C)(C)CC(C)(C)NC(=O)N1CC(CC#N)(n2cc(C(N)=O)c(Nc3ccccc3)n2)C1 [Example 38-29] . Value?
[A] 185

[Q] Give the measured IC50 of N#CCC1(n2cc(C(N)=O)c(Nc3ccnc(F)c3)n2)CCN(Cc2cccc(Cl)c2)CC1 [Example 22-61] .
[A] 0.4

[Q] Quick one: IC50 of N#CCC1(n2cc(C(N)=O)c(Nc3ccnc(F)c3)n2)CCN(C(=O)OCC2CC2)CC1 [Example 30-49] ?
[A] 0.3

---

Biological target: JAK1 (Homo sapiens (Human), UniProt P23458)
Sequence (P23458 875-1153): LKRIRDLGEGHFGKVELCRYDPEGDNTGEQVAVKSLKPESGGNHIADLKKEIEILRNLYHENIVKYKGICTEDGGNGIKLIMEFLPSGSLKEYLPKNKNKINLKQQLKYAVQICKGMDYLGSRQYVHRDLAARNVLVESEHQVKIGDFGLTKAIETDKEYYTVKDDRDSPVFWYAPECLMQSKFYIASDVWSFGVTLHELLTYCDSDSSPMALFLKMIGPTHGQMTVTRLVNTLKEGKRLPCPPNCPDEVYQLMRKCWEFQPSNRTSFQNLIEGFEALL
Assay: Jak Biochemical HTRF Assay, JAK1
Conditions: HTRF biochemical assay, GST-tagged catalytic domain; top concentration tested […]; read-out: JAK1 IC50
propertyName: pIC50
Field pIC50 (float): negative decimal logarithm of the concentration in molar.

[Q] If you can, please state the reported pIC50 value of CCC(F)(F)C(=O)N1CCC(CC#N)(n2cc(C(N)=O)c(Nc3ccnc(F)c3)n2)CC1 [Example 34-59] .
[A] 9.70

[Q] pIC50 lookup needed for N#CCC1(n2cc(C(N)=O)c(Nc3ccnc(F)c3)n2)CCN(Cc2cccnn2)CC1 [Example 22-35] , thanks.
[A] 8.22

[Q] # lookup: pIC50 of CCOc1cccc(N2CCC(CC#N)(n3cc(C(N)=O)c(Nc4ccc(F)cc4)n3)CC2)n1 [Example 3-16]
[A] 7.35

[Q] So what does the record say about pIC50 for N#CCC1(n2cc(C(N)=O)c(Nc3ccccc3)n2)COC1 [Example 2-20] ?
[A] 7.48

[Q] Reported pIC50 for N#CCC1(n2cc(C(N)=O)c(Nc3ccc(F)cc3)n2)CCC(Nc2ccccn2)CC1 (centres unmarked) [Example 40-12] : what is it?
[A] 8.70

[Q] # get_value(readout='pIC50', item= N#CCC1(n2cc(C(N)=O)c(Nc3ccc(F)cc3)n2)CCN(c2cncnc2)CC1 [Example 3-24] )
[A] 10.00

[Q] Which pIC50 value is on record for Cn1cnc(S(=O)(=O)N2CCC(CC#N)(n3cc(C(N)=O)c(Nc4ccccc4)n3)CC2)c1 [Example 37-7] ?
[A] 8.70

[Q] State the recorded pIC50 for this entry: Cc1ccccc1NC(=O)N1CC(CC#N)(n2cc(C(N)=O)c(Nc3ccccc3)n2)C1 [Example 38-27]
[A] 7.96

---

Biological target: JAK2 (Homo sapiens (Human), UniProt O60674)
Sequence (O60674 849-1124): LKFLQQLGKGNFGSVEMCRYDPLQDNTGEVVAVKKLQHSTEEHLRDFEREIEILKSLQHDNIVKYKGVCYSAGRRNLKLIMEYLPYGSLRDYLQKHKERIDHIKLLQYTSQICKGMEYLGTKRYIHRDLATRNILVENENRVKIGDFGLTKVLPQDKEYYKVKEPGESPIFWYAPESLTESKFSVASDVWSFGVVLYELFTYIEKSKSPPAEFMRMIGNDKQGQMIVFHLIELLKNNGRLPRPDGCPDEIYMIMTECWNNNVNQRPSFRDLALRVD
Assay: Jak Biochemical HTRF Assay, JAK2
Conditions: HTRF biochemical assay, GST-tagged catalytic domain; top concentration tested […]
Source text: Jak Biochemical HTRF Assay Protocol Subsequent reagent additions employed an Agilent Bravo.
I'd appreciate it if you could supply log10 of IC50 values for the items below.
A difference of one corresponds to tenfold IC50; all values are log10 with IC50 in nM.

[Q] Which measured log10 of IC50 value corresponds to N#CCC1(n2cc(C(N)=O)c(Nc3ccccc3)n2)CCN(C(=O)c2ccc(Cl)cc2)CC1 [Example 34-19] ?
[A] 2.26

[Q] Query (compound): N#CCC1(n2cc(C(N)=O)c(Nc3ccccc3)n2)CCN(C(=O)Cc2ccc(C(F)(F)F)cc2)CC1 [Example 34-30] ; field requested: log10 of IC50
[A] 2.56

[Q] Item under review: Cn1c(C(=O)N2CCC(CC#N)(n3cc(C(N)=O)c(Nc4ccccc4)n3)CC2)cc2ccccc21 [Example 34-26] . Reported log10 of IC50?
[A] 2.38

[Q] Which log10 of IC50 reading was recorded for the compound CC(C)(C)OC(=O)N1CCC(CC#N)(n2cc(C(N)=O)c(Nc3ccnc(F)c3)n2)CC1 [Example 9-1] ?
[A] 0.70

[Q] Item under review: N#CCC1(n2cc(C(N)=O)c(Nc3ccnc(F)c3)n2)CCN(C(=O)Cn2ccnc2)CC1 [Example 34-52] . Reported log10 of IC50?
[A] 2.19

[Q] Name the recorded log10 of IC50 for N#CCC1(n2cc(C(N)=O)c(Nc3cccnc3)n2)CCN(C(=O)OCC(F)(F)F)CC1 [Example 10-7] .
[A] 0.60

[Q] # get_value(readout='log10 of IC50', item= N#CCC1(n2cc(C(N)=O)c(Nc3ccccc3)n2)CN(CC(F)(F)F)C1 [Example 19] )
[A] 2.94

[Q] # query: log10 of IC50 of entry CC(C)c1ccc(CN2CCC(CC#N)(n3cc(C(N)=O)c(Nc4ccccc4)n3)CC2)cc1 [Example 21-24]
[A] 3.02

---

Molecular target: JAK1 (Homo sapiens (Human))
Assay: Jak Biochemical HTRF Assay, JAK1
Conditions: HTRF biochemical assay, GST-tagged catalytic domain; top concentration tested […]; read-out: JAK1 IC50
// NB: equality with 0.7 nM counts as not met; only IC50 strictly below is met

[Q] A record lists COc1cccc(Nc2nn(C3(CC#N)CCN(C(=O)OC(C)(C)C)CC3)cc2C(N)=O)n1 . Is its IC50 below 0.7 nM?
[A] not met

[Q] Criterion: IC50 strictly below 0.7 nM. Is it met by CC(C)(C)OC(=O)N1CCC(CC#N)(n2cc(C(N)=O)c(Nc3ccccn3)n2)CC1 ?
[A] not met

[Q] Hi there! Is IC50 for N#CCC1(n2cc(C(N)=O)c(Nc3ccnc(F)c3)n2)CCC(Nc2cc(F)ccc2F)CC1 (stereo not drawn) [Example 40-63] below 0.7 nM, do you know?
[A] met

[Q] Input N#CCC1(n2cc(C(N)=O)c(Nc3ccccc3)n2)CCN(Cc2cccc3ccccc23)CC1 ; condition: IC50 strictly below 0.7 nM. Does it hold?
[A] not met

[Q] Say whether its IC50 is strictly beneath 0.7 nM. Entry: N#CCC1(n2cc(C(N)=O)c(Nc3ccccc3)n2)CCN(C(=O)c2cnccn2)CC1
[A] not met

[Q] Is IC50 of CCn1ccnc1CN1CCC(CC#N)(n2cc(C(N)=O)c(Nc3ccnc(F)c3)n2)CC1 strictly below 0.7 nM?
[A] not met

[Q] Hello, I'm reviewing records and need to know if IC50 of N#CCC1(n2cc(C(N)=O)c(Nc3ccccc3)n2)CCN(C(=O)OCc2ccccc2F)CC1 is below 0.7 nM. Could you check?
[A] not met

[Q] Lab log: compare recorded IC50 with 0.7 nM; is it strictly lower for N#CCC1(n2cc(C(N)=O)c(Nc3ccccc3)n2)CN(C(=O)Nc2cccc(F)c2)C1 ?
[A] not met

[Q] Please state whether IC50 is below 0.7 nM for N#CCC1(n2cc(C(N)=O)c(Nc3ccnc(F)c3)n2)CCN(Cc2cccnc2)CC1
[A] met

[Q] IC50 under 0.7 nM? Item: N#CCC1(n2cc(C(N)=O)c(Nc3ccnc(F)c3)n2)CCC(NCc2ccccc2)CC1 (stereo not drawn) [Example 41-18]
[A] met

[Q] IC50 under 0.7 nM? Item: N#CCC1(n2cc(C(N)=O)c(Nc3ccccc3)n2)CCN(C(=O)c2cccc(Cl)c2)CC1
[A] not met

[Q] Identify whether the compound CC(F)(F)C(=O)N1CC[C@](CC#N)(n2cc(C(N)=O)c(Nc3ccc(F)nc3)n2)[C@H](F)C1 (single isomer, unassigned) records IC50 below 0.7 nM.
[A] not met

[Q] Is the reported IC50 for CC(C)(C)OC(=O)N1CCC(CC#N)(n2cc(C(N)=O)c(Nc3ccc(C#N)c(F)c3)n2)CC1 strictly below 0.7 nM?
[A] met

[Q] Threshold test, IC50 < 0.7 nM: N#CCC1(n2cc(C(N)=O)c(Nc3ccnc(F)c3)n2)CCC(NCc2ccc(F)cc2F)CC1 (stereo not drawn)
[A] met

---

Target: JAK2 (Homo sapiens (Human), UniProt O60674)
Test: Jak Biochemical HTRF Assay, JAK2
Settings: HTRF biochemical assay, GST-tagged catalytic domain; top concentration tested […]
Please respond with 1.0 when measured IC50 is strictly beneath 8 nM, and with 0.0 in all other cases.

[Q] Given COc1ccc(CN2CCC(CC#N)(n3cc(C(N)=O)c(Nc4ccnc(F)c4)n3)CC2)cc1 [Example 22-65] , is recorded IC50 strictly lower than 8 nM?
[A] 0.0

[Q] Answer whether the compound Cc1ccncc1N1CCC(CC#N)(n2cc(C(N)=O)c(Nc3ccc(F)cc3)n2)CC1 [Example 3-33] has IC50 strictly less than 8 nM
[A] 0.0

[Q] Please let me know if N#CCC1(n2cc(C(N)=O)c(Nc3ccc(F)cc3)n2)CCC(Nc2ccc(F)cc2)CC1 (centres unmarked) [Example 40-18] shows IC50 below 8 nM.
[A] 0.0

[Q] Is IC50 of N#CCC1(n2cc(C(N)=O)c(Nc3ccnc(F)c3)n2)CCN(Cc2cccc(O)c2)CC1 [Example 22-70] strictly below 8 nM?
[A] 1.0

[Q] Does CC(C)(O)C(=O)N1CCC(CC#N)(n2cc(C(N)=O)c(Nc3ccnc(F)c3)n2)CC1 [Example 34-43] have IC50 strictly under 8 nM?
[A] 0.0

[Q] # strict comparison: is reported IC50 < 8 nM? input = Cc1ccc(F)cc1N1CCC(CC#N)(n2cc(C(N)=O)c(Nc3ccc(F)cc3)n2)CC1 [Example 3-32]
[A] 0.0

[Q] API: query returns whether the compound falls strictly under 8 nM in IC50. Query: N#CCC1(n2cc(C(N)=O)c(Nc3ccccc3)n2)CCN(S(=O)(=O)c2ccco2)CC1 [Example 37-4]
[A] 1.0
